Entry source: patent US20220289816A1

- system: HLA-B*07 (Homo sapiens, UniProt P01889)
- assay-method-text: MHC binding assay (UV-ligand exchange, ELISA of stabilized MHC complexes)
- stated-conditions: peptide exchange yield on HLA-B*07, UV-ligand exchange
recorded-metric: Peptide exchange

Sample records with Peptide exchange:
[[record]]
substance = "75 (HVRPQTNCI; listed as Homo sapiens) [compound 75]"
system = "HLA-B*07 (Homo sapiens, UniProt P01889)"
measurement = "+++ (>50 = +++)"

[[record]]
substance = "206 (TPRIGPKVSL; listed as Homo sapiens) [compound 206]"
system = "HLA-B*07 (Homo sapiens, UniProt P01889)"
measurement = "+++ (>50 = +++)"

[[record]]
substance = "178 (VPYYPRANL; listed as Homo sapiens) [compound 178]"
system = "HLA-B*07 (Homo sapiens, UniProt P01889)"
measurement = "+++ (>50 = +++)"

[[record]]
substance = "489 (WPNHIMLVL; listed as Homo sapiens) [compound 489]"
system = "HLA-B*07 (Homo sapiens, UniProt P01889)"
measurement = "++++ (>75% = ++++)"

[[record]]
substance = "380 (SPYPGSAAF; listed as Homo sapiens) [compound 380]"
system = "HLA-B*07 (Homo sapiens, UniProt P01889)"
measurement = "++++ (>75% = ++++)"


Using the record for 242 (IPETASVVAI; listed as Homo sapiens) [compound 242] , state its measured Peptide exchange.
+++ (>50 = +++)

Identify measured Peptide exchange associated with 347 (SPLEKINSF; listed as Homo sapiens) [compound 347]
++++ (>75% = ++++)

For the substance 123 (RPRLRDLPAL; listed as Homo sapiens) [compound 123] , report Peptide exchange.
+++ (>50 = +++)

Answer with the recorded Peptide exchange of 261 (SPSTSRTPL; listed as Homo sapiens) [compound 261] only.
+++ (>50 = +++)

----------
- system: HLA-B*07 (Homo sapiens)
- assay-method-text: MHC binding assay (UV-ligand exchange, ELISA of stabilized MHC complexes)
- stated-conditions: peptide exchange yield on HLA-B*07, UV-ligand exchange
recorded-metric: Peptide exchange

[[record]]
substance = "208 (RNRQVATAL; listed as Homo sapiens) [compound 208]"
measurement = "+++ (>50 = +++)"

[[record]]
substance = "336 (YPLQGPGLLSV; listed as Homo sapiens) [compound 336]"
measurement = "+++ (>50 = +++)"

[[record]]
substance = "204 (FPYSGDKILV; listed as Homo sapiens) [compound 204]"
measurement = "+++ (>50 = +++)"

